Biological target: T1, CRBN, Q96SW2;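 also: pooled lentiviral library of zinc finger degron-EGFP fusions in mCherry-positive Jurkat cells, FACS-sorted after compound exposure, with degron abundance counted by next-generation sequencing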
T1 chain: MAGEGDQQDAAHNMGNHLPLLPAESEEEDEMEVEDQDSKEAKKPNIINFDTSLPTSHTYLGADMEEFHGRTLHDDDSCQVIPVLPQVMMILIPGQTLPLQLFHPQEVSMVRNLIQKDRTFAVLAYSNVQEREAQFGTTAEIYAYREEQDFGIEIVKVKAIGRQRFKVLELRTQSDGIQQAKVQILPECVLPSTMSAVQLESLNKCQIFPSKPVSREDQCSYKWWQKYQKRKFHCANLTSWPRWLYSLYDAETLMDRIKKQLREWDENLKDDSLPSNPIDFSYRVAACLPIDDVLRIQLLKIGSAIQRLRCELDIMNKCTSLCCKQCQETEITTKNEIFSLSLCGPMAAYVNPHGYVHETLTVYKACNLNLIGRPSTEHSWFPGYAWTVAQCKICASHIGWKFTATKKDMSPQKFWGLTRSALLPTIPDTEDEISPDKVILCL
Assay: log2 fold change of degron read counts, EGFP-low vs EGFP+ sorted cells (limma voom), compound-induced degradation; higher = more compound-induced degradation of the degron-EGFP fusion; degrons are variants of IKZF1/3 zinc finger 2; compound dose not given here
Conditions: Jurkat; 18 h; compound: compound 33 (diphenyl IMiD analogue)
Over roughly 8,300 sequences, “log2 fold change of degron read counts, EGFP-low vs EGFP+ sorted cells (limma voom), compound-induced degradation” has its median near -1.1; the highest 2% begin near 3.2. The list comes from a sample in which the highest values are over-represented; it also holds close analogues and randomly drawn sequences.
Classify as follows. Reported log2 fold change of degron read counts greater than or equal to -1: T. Reported log2 fold change of degron read counts below: F.

- FVCDVCGARFTQKGNLLRHIKL [46F_47V_49D_50V_52G_53A_54R_55F_67L_, Q9UKT9]: T
- FLCDVCGARFTQKGNLLRHIKL [46F_47L_49D_50V_52G_53A_54R_55F_67L_, Q9UKT9]: F
- FGCDVCGARFTQKGNLLRHIKL [46F_47G_49D_50V_52G_53A_54R_55F_67L_, Q9UKT9]: F
- FMCEICGRCFTQKGNLLRHIKL [46F_47M_49E_50I_52G_53R_54C_55F_67L_, Q9UKT9]: F
- FGCNQCGRQFTQKGNLLRHIKL [46F_47G_49N_50Q_52G_53R_54Q_55F_67L_, Q9UKT9]: F
- LACEICGFLCTQKGNLLRHIKL [46L_47A_49E_50I_52G_53F_54L_55C_67L_, Q9UKT9]: F
- FSCEICGAYFTQKGNLLRHIKL [46F_47S_49E_50I_52G_53A_54Y_55F_67L_, Q9UKT9]: T
- FYCPICGHMFTQKGNLLRHIKL [46F_47Y_49P_50I_52G_53H_54M_55F_67L_, Q9UKT9]: T
- FTCDQCGASFTQKGNLLRHIKL [46F_47T_49D_50Q_52G_53A_54S_55F_67L_, Q9UKT9]: T
- FGCNQCGHNFTQKGNLLRHIKL [46F_47G_49N_50Q_52G_53H_54N_55F_67L_, Q9UKT9]: F

Enquiry: Does the sequence FYCDICGAHFTQKGNLLRHIKL [46F_47Y_49D_50I_52G_53A_54H_55F_67L_, Q9UKT9] have recorded log2 fold change of degron read counts that is -1 or more?
Return: T
